Values from PubChem BioAssay (EPA / NIEHS)

# protocol.description: APR_HepG2_CellCycleArrest_72hr: Apredica 72-hour HepG2 Assay for Cell Cycle Arrest (AID 2282914)
# test.settings: high-content imaging, actives raise or lower the signal
Activity calls are given as the source filed them. How the source made its calls: active means hit-call score of the fitted dose curve at least 0.9, where 1 is the maximum; inactive means score below 0.9.
Possible outcomes: active, inactive

{"compound": "CCCCC(CC)COC(=O)CCCCC(=O)OCc1ccccc1 (stereo not given)", "label": "inactive"}
{"compound": "O=c1c(-c2ccc(O)cc2)coc2cc(O)ccc12", "label": "inactive"}
{"compound": "O=C(O)Cc1cc(I)c(Oc2cc(I)c(O)c(I)c2)c(I)c1", "label": "active"}
{"compound": "CCCCCCCCC(=O)O", "label": "inactive"}
{"compound": "N#C[C@@H]1CC(F)(F)CN1C(=O)CNC1CC2CCC(C1)N2c1ncccn1 (stereo not given in full)", "label": "inactive"}
{"compound": "CCc1ccc(CCOc2ccc(CC3SC(=O)NC3=O)cc2)nc1 (stereo not given)", "label": "active"}
{"compound": "CC(C)(C)c1ccc(O)c(C(C)(C)C)c1", "label": "inactive"}
{"compound": "CCC(=C(c1ccc(O)cc1)c1ccc(OCCN(C)C)cc1)c1ccccc1", "label": "inactive"}
{"compound": "CC(C)CCCCCCOC(=O)CCCCC(=O)OCCCCCCC(C)C", "label": "inactive"}
{"compound": "c1ccc2cc3c(ccc4ccccc43)cc2c1", "label": "active"}
{"compound": "CCCCC[C@H](O)CC(=O)CCc1ccc(O)c(OC)c1", "label": "inactive"}
{"compound": "Nc1cccc2c(N)cccc12", "label": "inactive"}
{"compound": "NC(=O)N1C(=O)C(C(=O)c2cc(Cl)cs2)c2cc(F)c(Cl)cc21 (stereo not given)", "label": "active"}
{"compound": "NC(=O)N(O)[C@@H]1C=C[C@H](Oc2cccc(Oc3ccc(F)cc3)c2)C1", "label": "inactive"}
{"compound": "Oc1cc2ccccc2c2ccccc12", "label": "inactive"}
{"compound": "CC(C)(C)c1cc(C(C)(C)C)c(O)c(C(C)(C)C)c1", "label": "inactive"}
{"compound": "C#C[C@]1(O)CC[C@H]2[C@@H]3CCC4=CC(=O)CC[C@@H]4[C@H]3CC[C@@]21C", "label": "inactive"}
{"compound": "CCCCCCCCCCCCc1ccccc1S(=O)(=O)O", "label": "inactive"}
{"compound": "CC(=O)CC(C)(C)O", "label": "active"}
{"compound": "OC1CCC(C2CCCCC2)CC1 (stereo not given)", "label": "inactive"}
{"compound": "CC#C[C@]1(O)CC[C@H]2[C@@H]3CCC4=CC(=O)CCC4=C3[C@@H](c3ccc(N(C)C)cc3)C[C@@]21C", "label": "inactive"}
{"compound": "CC[C@H](c1ccc(O)cc1)[C@@H](CC)c1ccc(O)cc1", "label": "inactive"}
{"compound": "Cc1oc(-c2ccccc2)nc1CCOc1ccc(C[C@H](Nc2ccccc2C(=O)c2ccccc2)C(=O)O)cc1", "label": "active"}
{"compound": "CN1CCC[C@H]1c1cccnc1", "label": "inactive"}
{"compound": "COc1cc(CCC(=O)CC(=O)CCc2ccc(O)c(OC)c2)ccc1O", "label": "inactive"}

====

# protocol.description: CCTE_Deisenroth_AIME_384WELL_CTox_Inactive: Cytotoxicity Assessment (CTOX) in CCTE's 384-well Estrogen Receptor Transactivation Assay without AIME metabolic competence (metabolism negative), Deisenroth Lab (AID 2284039);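 further: cell viability via live-cell protease substrate cleaved to fluorescent probe; cells exposed 24 h to medium preincubated 2 h with alginate-water beads without S9; loss of fluorescence signal means loss of viability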
Results filed as inconclusive are left out. Activity calls are given as the source filed them. The calls were made as follows: active = hit-call score of the fitted dose curve at least 0.9, where 1 is the maximum; inconclusive = response in the unintended direction; inactive = score below 0.9.
Possible outcomes: Y for active, N for inactive

{"compound": "N#C[C@@H]1CC(F)(F)CN1C(=O)CNC1CC2CCC(C1)N2c1ncccn1 (stereo not given in full)", "label": "N"}
{"compound": "Oc1cc2ccccc2c2ccccc12", "label": "Y"}
{"compound": "c1ccc2cc3c(ccc4ccccc43)cc2c1", "label": "N"}
{"compound": "CC#C[C@]1(O)CC[C@H]2[C@@H]3CCC4=CC(=O)CCC4=C3[C@@H](c3ccc(N(C)C)cc3)C[C@@]21C", "label": "N"}
{"compound": "COc1ccc([N+](=O)[O-])cc1N", "label": "Y"}
{"compound": "CCCCCCCC(=O)O", "label": "N"}
{"compound": "CCCCCCCCCCCCN1CCCC1=O", "label": "Y"}
{"compound": "CC(C)(C)c1ccc(O)c(C(C)(C)C)c1", "label": "Y"}
{"compound": "CCN(CC)CCNc1ccc(CNC=O)c2sc3ccc(OC)cc3c(=O)c12", "label": "Y"}
{"compound": "CCCCCCCCC(=O)O", "label": "N"}
{"compound": "CN1CCC[C@H]1c1cccnc1", "label": "N"}
{"compound": "OC1CCCCC1", "label": "N"}
{"compound": "O=C(O)c1ccccc1C(c1ccc(O)cc1)c1ccc(O)cc1", "label": "N"}
{"compound": "OCCC(F)(F)C(F)(F)C(F)(F)C(F)(F)C(F)(F)C(F)(F)F", "label": "N"}
{"compound": "Cc1ccc(S(=O)(=O)O)c(C)c1", "label": "N"}

====

# Read-out: Vascular endothelial growth factor receptor 2 (Homo sapiens) (UniProt P35968)
# protocol.description: BSK_4H_VEGFRII: BioMAP Diversity Plus: 4H Assay for Vascular endothelial growth factor receptor 2 (VEGFR2) Biomarker Activity (AID 2283031)
# test.settings: primary human endothelial cells (HUVEC); actives raise or lower the signal
Activity calls are given as the source filed them. The calls were made as follows: active = hit-call score of the fitted dose curve at least 0.9, where 1 is the maximum; inactive = score below 0.9.
Classes used: active, inactive

{"smiles.notation": "CCCCCCCCCCCCCC[N+](C)(C)C", "label": "inactive"}
{"smiles.notation": "O=[N+]([O-])c1ccc(O)cc1", "label": "inactive"}
{"smiles.notation": "C#C[C@]1(O)CC[C@H]2[C@@H]3CCC4=CC(=O)CC[C@@H]4[C@H]3CC[C@@]21C", "label": "active"}
{"smiles.notation": "CCCCOCCO", "label": "inactive"}
{"smiles.notation": "O=C(O)c1ccccc1C(c1ccc(O)cc1)c1ccc(O)cc1", "label": "inactive"}
{"smiles.notation": "C[C@@H]1C[C@H]2[C@@H]3CCC4=CC(=O)C=C[C@]4(C)[C@@]3(F)[C@@H](O)C[C@]2(C)[C@@]1(O)C(=O)COP(=O)(O)O", "label": "inactive"}

====

# protocol.description: ATG_DR4_LXR_CIS: Attagene CIS-FACTORIAL HepG2 Assay for human Liver X Receptor (LXR), DR4 submotif (AID 2282929)
# test.settings: HepG2 Attagene DR4 cis-reporter, mRNA transcription; actives raise or lower the signal
# Description: ATG_CIS is a cell-based, multiplexed-readout assay that uses HepG2, a human liver cell line, with measurements taken at 24 hours after chemical dosing in a 24-well plate.ATG_DR4_LXR_CIS is one of 52 assay component(s) measured or calculated from the ATG_CIS assay. […] This assay endpoint, ATG_DR4_LXR_CIS, was analyzed with bidirectional fitting relative to DMSO as the negative control and baseline of activity. […]
Active and inactive are the calls of the source. The calls were made as follows: active = hit-call score of the fitted dose curve at least 0.9, where 1 is the maximum; inactive = score below 0.9.
Outcomes: Yes = active, No = inactive

{"compound": "Cc1ccc(S(=O)(=O)O)c(C)c1", "label": "No"}
{"compound": "CCCCOCCO", "label": "No"}
{"compound": "O=C(O)c1ccccc1C(c1ccc(O)cc1)c1ccc(O)cc1", "label": "No"}
{"compound": "COCC(C)OCC(C)O (stereo not given)", "label": "No"}
{"compound": "N#C[C@@H]1CC(F)(F)CN1C(=O)CNC1CC2CCC(C1)N2c1ncccn1 (stereo not given in full)", "label": "No"}
{"compound": "Cc1cc(CCN2CCN(c3nsc4ccccc34)CC2)cc2c1NC(=O)CC2(C)C", "label": "Yes"}
{"compound": "FC(F)(I)C(F)(F)C(F)(F)C(F)(F)C(F)(F)C(F)(F)I", "label": "No"}
{"compound": "NC(=O)N1C(=O)C(C(=O)c2cc(Cl)cs2)c2cc(F)c(Cl)cc21 (stereo not given)", "label": "No"}
{"compound": "CC(O)CO (stereo not given)", "label": "No"}
{"compound": "CC(C)(C)c1cc(C(C)(C)C)c(O)c(C(C)(C)C)c1", "label": "No"}
{"compound": "CCCCCCCCOC(=O)CCCCCCCCC(=O)OCCCCCCCC", "label": "No"}
{"compound": "O=C(OCCOCCOC(=O)c1ccccc1)c1ccccc1", "label": "No"}
{"compound": "c1ccc2c(c1)Cc1ccccc1-2", "label": "No"}
{"compound": "CC(C)(C)c1ccc(O)c(C(C)(C)C)c1", "label": "No"}
{"compound": "C=C(C)C(=O)OCCC(F)(F)C(F)(F)C(F)(F)C(F)(F)C(F)(F)C(F)(F)F", "label": "No"}
{"compound": "COC(=O)CCCCC(=O)OC", "label": "No"}
{"compound": "CCN(CC)CCNc1ccc(CNC=O)c2sc3ccc(OC)cc3c(=O)c12", "label": "No"}
{"compound": "COc1cc(CCC(=O)CC(=O)CCc2ccc(O)c(OC)c2)ccc1O", "label": "No"}
{"compound": "CCCCC[C@H](O)CC(=O)CCc1ccc(O)c(OC)c1", "label": "No"}
{"compound": "OC1CCCCC1", "label": "No"}
{"compound": "c1ccc2c(c1)ccc1ccccc12", "label": "No"}
{"compound": "CC(C)CCCCCCOC(=O)CCCCC(=O)OCCCCCCC(C)C", "label": "No"}
{"compound": "COc1ccc([N+](=O)[O-])cc1N", "label": "No"}
{"compound": "CC(=O)CC(C)(C)O", "label": "No"}
{"compound": "O=[N+]([O-])c1ccc(O)cc1", "label": "No"}
